Reference for the values: PubChem BioAssay AID1159580

normalized growth values for the compounds below.
Test: chemical genetic growth profiling, strain panel (AID 1159580);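 also: tested at 20 µM; growth read once vehicle control cultures reached saturation at 30 °C; 1 = growth at the plate median or of vehicle wells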
Details: S. cerevisiae deletion strains, growth OD, locus YBR021W, strain FUR4, stronger effect = lower value
In all, about 5,500 compounds went through this assay and about 2,000 (36%) were called active. Inconclusive results (about 18%) are left out. The list shows a part of the results.
Answer using only a numeral; do not append any unit.

# Compound, normalized growth
rows = [
    ("CC1(C)CC2C1(O)CCC1(C)C=CC(O)C21CO (stereo not drawn)", 1.01),
]

# normalized growth lookup, item CC(=O)Nc1cc([As](=O)(O)O)ccc1O 1.05

How about this compound: CC(Cc1ccc(O)c(O)c1)C(C)Cc1ccc(O)c(O)c1 (stereo not drawn) 0.952

Quick one: NC[C@H](O)c1ccc(O)c(O)c1 1.01

How about NCC(O)c1ccc(O)cc1 (stereo not drawn) ? 0.987

Also need CC(C)NCC(O)c1ccc(O)c(O)c1 (stereo not drawn) , thanks. 1.01

* * *

Assay: chemical genetic growth profiling, strain panel (AID 1159580)
Conditions: S. cerevisiae deletion strains, growth OD, locus YPL209C, strain IPL1, stronger effect = lower value
The whole screen tested about 5,500 compounds, of which about 2,000 (36%) were called active. Inconclusive results (about 18%) are left out. This is one part of the list.
Quantity Kind: normalized growth
Give the figure by itself; no unit, no explanation.

Example entries begin here.
# Compound, Quantity Kind, Test Value
rows = [
    ("O=c1c(Cl)c(-n2cccn2)cnn1-c1ccc(Cl)cc1Cl", "normalized growth", 0.954),
    ("Cc1cc(Cl)ccc1NC(=S)NNC(=S)Nc1ccc(F)cc1", "normalized growth", 0.969),
    ("CC(=O)Nc1ccc([N+](=O)[O-])cc1[N+](=O)[O-]", "normalized growth", 0.915),
    ("CC(=O)Nc1ccc(/C=C/[N+](=O)[O-])cc1", "normalized growth", 0.98),
    ("Cc1c2c(=O)[nH]ncc2c(-c2ccccc2)n1-c1ccc([N+](=O)[O-])cc1", "normalized growth", 1),
]

Form field: reported normalized growth of FC(F)(F)c1cccc(NC(=S)Nc2csc(C(F)(F)F)c2-c2ccccc2)c1 0.997

Thanks! And O=[N+]([O-])c1cc(Br)cnc1Sc1nnc(SCC2CC2)s1 ? 0.958

Also check CCOC(=O)C1=C(N)OC2=C(C(=O)CC(C)(C)C2)C1c1ccc(Cl)cc1Cl (stereo unspecified) 0.966

Now consider Cc1nn(Cc2ccc(C(=O)Sc3ccc(C(F)(F)F)cn3)o2)c(C)c1Br and answer again. 0.974

CCOC(=O)/C(=N/Nc1c(Cl)cccc1Cl)c1csc(N)n1 , same question. 0.973

Request: N#CC(C#N)=C/C=C(/Sc1nc2ccccc2s1)c1ccc(Br)cc1 0.159

Input Cc1cc(Br)ccc1-n1c(Sc2c([N+](=O)[O-])cc(C(F)(F)F)cc2[N+](=O)[O-])nc2ccccc2c1=O 0.99

Repeat with O=[N+]([O-])/C=C/c1ccsc1 0.0842

What would you report for O=C1CSC(c2cccnc2)N1c1ccc(Cl)cc1Cl (stereo unspecified) ? 0.989

Input CSc1cc(-c2ccncc2)nc(-c2cccs2)c1 0.954

Let us now turn to C=CCOc1ccc(/C=C/[N+](=O)[O-])cc1 0.0828

* * *

Assay: chemical genetic growth profiling, strain panel (AID 1159580)
Conditions: S. cerevisiae deletion strains, growth OD, locus YNL233W, strain BNI4
The campaign covered roughly 5,500 compounds. About 2,000 (36%) were called active. Inconclusive results (about 18%) are left out. Cut-off read from the data, not from the text of the source: active = normalized growth mostly below about 0.91 (no sharp cut-off); inconclusive = no clear call, values can overlap the other calls; inactive = mostly above about 0.92. This is one part of the list.
Just give me one of these, please: 1 (active), 0 (inactive)

Worked cases, answers included:
# Compound, Class Label
records = [
    ("NC[C@H](O)c1ccc(O)c(O)c1", 0),
    ("Nc1ncnc2c1ncn2C1C[C@H](O)[C@@H](CO)O1 (some centres not stated)", 0),
    ("Nc1nc2ncc(C(=O)O)nc2c(=O)[nH]1", 0),
    ("CC(=O)Oc1ccc(Cl)c2cccnc12", 1),
    ("CC(C)NCC(O)c1ccc(O)c(O)c1 (configuration not stated)", 0),
]

Recorded test outcome, item Oc1c(I)cc(I)c2cccnc12 1

Field entry: O=C1O[C@H](C(O)CO)C(O)=C1O (some centres not stated) 0

* * *

Experiment: chemical genetic growth profiling, strain panel (AID 1159580);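 also: tested at 20 µM; growth read once vehicle control cultures reached saturation at 30 °C; 1 = growth at the plate median or of vehicle wells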
Details: S. cerevisiae deletion strains, growth OD, locus YPR111W, strain DBF20
In all, about 5,500 compounds went through this assay and about 2,000 (36%) were called active. Roughly 18% stayed inconclusive and do not appear here. No stated cut-off is given here; in the data, active means normalized growth mostly below about 0.91 (no sharp cut-off); inconclusive means no clear call, values can overlap the other calls; inactive means mostly above about 0.92. Some of the results follow.
Lab note: assign the record to one of yes for active, no for inactive

# Molecule, Class Label
records = [
    ("S=C(N/N=C\\c1ccc(Cl)cc1)N/N=C\\c1ccc(Cl)cc1", "no"),
    ("FC(F)(F)c1cccc(NC(=S)Nc2csc(C(F)(F)F)c2-c2ccccc2)c1", "no"),
    ("O=C(NCCSCc1cccc(C(F)(F)F)c1)Nc1cccc(C(F)(F)F)c1", "no"),
    ("O=C(c1ccccc1)c1cc(Cl)ccc1NC(=S)Nc1ccc(F)cc1", "no"),
    ("Cc1cccc(Cl)c1/C=N\\NC(N)=S", "no"),
]

Test call, this molecule: CC(=O)Nc1ccc(/C=C/[N+](=O)[O-])cc1 no

Moving on to the next molecule: NC(=Nc1ccc(F)cc1)SCc1c(Cl)cccc1Cl no

For O=[N+]([O-])/C=C/c1ccsc1 then? yes

Then this molecule: CC(C)c1ccc(NC(=S)NC(=O)c2ccccc2)cc1 no

Now this one: O=C1CSC(c2cccnc2)N1c1ccc(Cl)cc1Cl (configuration not stated) no

Then this molecule: Cc1cc(Cl)ccc1NC(=S)NNC(=S)Nc1ccc(F)cc1 no

Follow-up item: C=CCOc1ccc(/C=C/[N+](=O)[O-])cc1 yes

* * *

Test: chemical genetic growth profiling, strain panel (AID 1159580);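 also: tested at 20 µM; growth read once vehicle control cultures reached saturation at 30 °C; 1 = growth at the plate median or of vehicle wells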
Details: S. cerevisiae deletion strains, growth OD, locus YIR030C, strain dcg1, stronger effect = lower value
About 2,000 (36%) of roughly 5,500 compounds were called active. Roughly 18% stayed inconclusive and do not appear here. Some of the results follow.
So basically: is normalized growth under 1? Then yes. Not under? Then no.

Determine if O=C(O)CCC(=O)C(=O)O shows normalized growth strictly lower than 1. no

And what about the compound CCCC(C)C1(CC)C(=O)N=C(S)NC1=O (configuration not stated) ? yes

* * *

Entries annotated with measured normalized growth
Experiment: chemical genetic growth profiling, strain panel (AID 1159580);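 also: tested at 20 µM; growth read once vehicle control cultures reached saturation at 30 °C; 1 = growth at the plate median or of vehicle wells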
Details: S. cerevisiae deletion strains, growth OD, locus YJL134W, strain LCB3, stronger effect = lower value
The whole screen tested about 5,500 compounds, of which about 2,000 (36%) were called active. Roughly 18% stayed inconclusive and do not appear here. Some of the results follow.
Please give the numeric answer without any surrounding text.

# count of solved cases: 10
# Compound, normalized growth
measured = [
    ("CCN(CC)CCOc1ccc(/C(=C(\\Cl)c2ccccc2)c2ccccc2)cc1", 0.0524),
    ("CCC[C@H]1CC2=C(C[C@@H](CC)CC3=C1C(=O)OC3=O)C(=O)OC2=O", 1.01),
    ("Nc1ncnc2c1ncn2[C@@H]1O[C@H](CO)[C@@H](O)[C@H]1O", 0.985),
    ("CC/C(=C(\\c1ccccc1)c1ccc(OCCN(C)C)cc1)c1ccccc1", 0.0479),
    ("CCCC(C)C1(CC)C(=O)NC(=O)NC1=O (configuration not stated)", 1.01),
    ("CCCCC1(COC(=O)CCC(=O)O)C(=O)N(c2ccccc2)N(c2ccccc2)C1=O", 0.996),
    ("O=C(O)c1ccccc1Nc1cccc(C(F)(F)F)c1", 0.994),
    ("NCC(CC(=O)O)c1ccc(Cl)s1 (configuration not stated)", 0.989),
    ("CCCC(C)C1(CC)C(=O)N=C(S)NC1=O (configuration not stated)", 1.01),
    ("O=C(CCCCCCCCCCCCC1CCCC1)Nc1ccc(S(=O)(=O)c2ccc(NC(=O)CCCCCCCCCCCCC3CCCC3)cc2)cc1", 1.02),
]

# lookup: normalized growth of COc1c2c(cc3c1OCO3)CCN(C)C2 0.998

Next up: CO[C@H]1/C=C/O[C@@]2(C)Oc3c(C)c(O)c4c(O)c(c(/C=N/N5CCN(C)CC5)c(O)c4c3C2=O)NC(=O)/C(C)=C\C=C\C(C)[C@H](O)[C@@H](C)[C@@H](O)[C@@H](C)[C@@H](OC(C)=O)[C@@H]1C (some centres not stated) 1.01

Please do the same for O=C(O)CCCCC1CCSS1 (configuration not stated) as well. 0.977

Try this compound too: Nc1ncnc2c1ncn2C1O[C@H](COP(=O)(O)O)[C@@H](O)[C@H]1O (some centres not stated) 1.01

Further, for Nc1ncnc2c1ncn2C1C[C@H](O)[C@@H](CO)O1 (some centres not stated) ? 0.996

Another compound to check: C=CCC1(C(C)CCC)C(=O)N=C(S)NC1=O (configuration not stated) 0.979

Same read-out for O=c1[nH]c(=O)n(C2C[C@@H](O)[C@@H](CO)O2)cc1F (some centres not stated) ? 1.01

// query: O=C1O[C@H](C(O)CO)C(O)=C1O (some centres not stated) 0.987

Please answer likewise for CN(C)CCOC(C)(c1ccccc1)c1ccccn1 (configuration not stated) 1

Please do the same for CC(=O)c1c(O)c(C)c(O)c2c1OC1=CC(=O)C(C(C)=O)C(=O)C12C (configuration not stated) as well. 1.01

Similarly, CS(=O)(=O)CCCCN=C=S ? 0.981

Moving on to the next compound: COc1cc(C(=O)NCc2ccc(OCCN(C)C)cc2)cc(OC)c1OC 0.993
